# TESTED_ON: d-enCas12a-Ultra (Acidaminococcus sp., UniProt U2UMQ6 1-1307, E174R;S542R;K548R;M537R;F870L;D908A;E993A;D1235A)
# ASSAY: Spec-seq (native PAGE EMSA with sequencing of bound and unbound); 25 mM Tris-HCl pH 7.4, 150 mM KCl, 5 mM MgCl2, 10% glycerol, 1 mM DTT, 40 ng/uL salmon sperm DNA; 400 nM Cas12a, 480 nM crRNA, 50 nM library, 37 C 1 h; native PAGE at room temperature; high values mean tight binding;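 further: relative affinity from the bound to unbound sequence frequency ratio in Spec-seq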
# MEASUREMENT_CONTEXT: protein: recombinant
REPORTED_ENDPOINT: binding signal
Give the value; after it, write the unit.

1) GCGG (dsDNA) DNA 1: GCTATCTAGTGCTCAGTACGCACTGGCGGAGGAAACTTCTGGCAGGACCAGGTCATGAGATCGGAAGAGCACACGTCTGAACTCCAGTCA DNA 2: TGACTGGAGTTCAGACGTGTGCTCTTCCGATCTCATGACCTGGTCCTGCCAGAAGTTTCCTCCGCCAGTGCGTACTGAGCACTAGATAGC RNA: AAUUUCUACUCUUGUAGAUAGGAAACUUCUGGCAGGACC : -3.63 lnKA
2) CGAT (dsDNA) DNA 1: GCTATCTAGTGCTCAGTACGCACTGCGATAGGAAACTTCTGGCAGGACCAGGTCATGAGATCGGAAGAGCACACGTCTGAACTCCAGTCA DNA 2: TGACTGGAGTTCAGACGTGTGCTCTTCCGATCTCATGACCTGGTCCTGCCAGAAGTTTCCTATCGCAGTGCGTACTGAGCACTAGATAGC RNA: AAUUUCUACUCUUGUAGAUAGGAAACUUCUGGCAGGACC : -3.4 lnKA

Next binder, binding signal to be filled in.
Incoming: Item under review: CCTT (dsDNA) DNA 1: GCTATCTAGTGCTCAGTACGCACTGCCTTAGGAAACTTCTGGCAGGACCAGGTCATGAGATCGGAAGAGCACACGTCTGAACTCCAGTCA DNA 2: TGACTGGAGTTCAGACGTGTGCTCTTCCGATCTCATGACCTGGTCCTGCCAGAAGTTTCCTAAGGCAGTGCGTACTGAGCACTAGATAGC RNA: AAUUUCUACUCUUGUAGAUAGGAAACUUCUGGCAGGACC . Reported binding signal?
Outgoing: -3.27 lnKA
